Attribution: PubChem BioAssay (NCI)

Tested on: DU-145 prostate
protocol details: NCI-60 one-dose screen, 48 h
condition: 10 µM unless noted
The panel holds about 83,000 compounds, 20% with a hit somewhere; the sample as a whole holds those more often. The source made the active and inactive calls. How the source made its calls: active means growth percent below 10; inactive means the rest.
Outcomes: active, inactive

{"columns": ["compound", "label value"],
 "data": [
  ["COc1cc2c(cc1OC)-c1cc(OC)c(OC)cc1C(CN(C)C)C2 (stereo unspecified)", "inactive"],
  ["Nc1nc(N)c2cc(NCc3ccc(Cl)c(Cl)c3)ccc2n1", "active"],
  ["COc1ccccc1/C=C/C(=O)CCC(=O)O", "inactive"],
  ["ClC1=NC(Cl)C(Cl)=N/C1=N\\c1ncn[nH]1 (stereo unspecified)", "active"],
  ["O=C1Nc2ccc(Br)cc2/C1=N/c1nc(-c2ccccc2)cs1", "inactive"],
  ["COc1ccc2nc3ccccc3c(NCc3ccc(C)cc3)c2c1", "inactive"],
  ["COc1ccc(N=C2CSc3nnc(-c4cc(F)c(Cl)cc4Cl)n3N2)cc1", "active"],
  ["C=CC(=O)N1CN(C(=O)C=C)CN(C(=O)C=C)C1", "inactive"],
  ["Cc1ccc(C)c2c1SC1=NNC(Oc3ccc(Cl)cc3)=C(C#N)C(=N)N12", "inactive"],
  ["CS(=O)(=O)c1ccc(C(=O)N/N=C/c2cccc3ccccc23)cc1", "inactive"],
  ["C=C1C[C@@]2(C)C(CC[C@]3(C)C2CC=C2C4CC(C)(C)C[C@@H](OC(=O)/C(C)=C\\C)[C@]4(C(=O)O)CC[C@]23C)C(C)(C)C1=O (stereo partly specified)", "inactive"],
  ["Cc1ccc(OC2=C(C#N)C(=N)N3C(=NN2)Sc2c(C)ccc(C)c23)cc1", "inactive"],
  ["NC(N)=NC1CCCCC1", "inactive"],
  ["CCOC(=O)C1OC2(CCCC2)OC1C(=O)OCC (stereo unspecified)", "inactive"],
  ["COc1ccc(Cl)cc1Nc1nc(C(F)(F)F)ccc1C(=O)NN", "inactive"],
  ["C=C(C)[C@@H]1CC[C@]2(C(=O)NC(COC(=O)C(Cl)Cl)(COC(=O)C(Cl)Cl)COC(=O)C(Cl)Cl)CC[C@]3(C)[C@H](CC[C@@H]4[C@@]5(C)CC[C@H](OC(C)=O)C(C)(C)[C@@H]5CC[C@]43C)[C@@H]12", "inactive"],
  ["Oc1ccc(-c2nc3ccccc3s2)cc1CN(Cc1ccccn1)Cc1ccccn1", "inactive"],
  ["COc1ccc(C2c3cccn3-c3ccccc3N2C(C)=O)cc1 (stereo unspecified)", "inactive"],
  ["COc1ccc(C(=O)O)cc1.[Ag]", "inactive"],
  ["COc1cc(/C=C\\c2cc(/C=C\\c3ccc(O)c(OC)c3)n(C(=O)Nc3ccc(C(F)(F)F)cc3)n2)ccc1O", "inactive"],
  ["Cc1ccc2c(C)c3c(ccc4ccccc43)c[n+]2c1", "inactive"]
]}

###

Tested on: NCI/ADR-RES ovarian
protocol details: NCI-60 one-dose screen, 48 h (100 = growth as untreated, 0 = no growth, -100 = all killed)
condition: 10 µM unless noted
The panel holds about 83,000 compounds, 20% with a hit somewhere; the sample as a whole holds those more often. Activity calls are given as the source filed them. How the source made its calls: active means growth percent below 10; inactive means the rest.
value type: growth

{"columns": ["compound", "reported measurement"],
 "data": [
  ["COc1ccc(-c2cc(-c3cn(-c4cccc(Cl)c4)nc3-c3ccc(OC)cc3)[nH]c(=S)n2)cc1", "99.6% (inactive)"],
  ["CCN1C(=O)N(CC)C2C1NN=c1s/c(=C\\c3ccc(Br)cc3)c(=O)n12 (configuration not stated)", "5.64% (active)"],
  ["COc1ccc(-c2cc(C(=O)Nc3ccc(C)cc3)nc3[nH]c(=O)sc23)cc1", "78.3% (inactive)"],
  ["CCN(CC)CCNC(=O)n1cc(-c2ccncc2)c(-c2ccc(Cl)c(OC)c2)n1", "83.5% (inactive)"],
  ["C#CCNc1nc(NCCNC(=O)CCl)nc(N(C)CCCCc2ccccc2)n1", "102% (inactive)"],
  ["C[Si](C)(C)C(c1ccccc1)c1ccccc1", "98.9% (inactive)"],
  ["COc1cnc2c(c1)C(=O)c1c-2n(CCCN2CCNCC2)c(=O)c2cc(Cl)ccc12", "48.1% (inactive)"],
  ["Cn1c(=O)c2c(nc(N/N=C/c3ccccc3Cl)n2C)n(C)c1=O", "97.3% (inactive)"],
  ["COc1nccc2c(Sc3ccccc3)nc(N)nc12", "106% (inactive)"],
  ["CC1(C)CC(=O)c2cc3c(N)c(C(=O)Nc4ccc(Cl)cc4)sc3nc2C1", "114% (inactive)"],
  ["N=c1nc(N2CCCCC2)cc(N)n1O", "122% (inactive)"],
  ["O=C(CCl)N1c2ccccc2Oc2ccc3ccccc3c21", "-11.9% (active)"],
  ["CN1CCC2(CC1)N=C(SCC(=O)Nc1cnc3ccccc3c1)C(c1ccc(Br)cc1)=N2", "29.6% (inactive)"],
  ["CC(=O)Nc1c(Br)cc2c(c1Br)Cc1cc(Br)ccc1-2", "76.1% (inactive)"],
  ["COc1cccc(C2C(C#N)=C(N)Oc3cc4c(cc32)OCO4)c1 (configuration not stated)", "5.77% (active)"],
  ["Cc1cccc(/C=N/n2c(-c3ccc(Cl)cc3)nc3c(Br)cc(Br)cc3c2=O)c1", "30.5% (inactive)"],
  ["COc1ccc(-c2nc3c(c(-c4ccc(Cl)cc4)nn3-c3ccccc3)c(-c3ccc(O)cc3)c2C#N)cc1", "54.6% (inactive)"],
  ["CC(C)[C@@H]1C=C2CC[C@H]3[C@](C)(CN)CCC[C@]3(C)[C@H]2CC1", "106% (inactive)"],
  ["CCN(CC)CCNC(=O)n1cc(-c2ccncc2)c(-c2cc(Cl)cc(OC)c2)n1", "86% (inactive)"],
  ["C=C(c1ccc(C(=O)NCCCn2ccnc2)cc1)c1cc2c(cc1C)C(C)(C)CCC2(C)C", "5.05% (active)"],
  ["CCOC(=O)c1cnc(SCC)nc1SC#N", "100% (inactive)"],
  ["Cc1ccccc1C1CC(=O)c2ccccc2C1C (configuration not stated)", "108% (inactive)"]
]}
